Method summary: Pharmacokinetic data of OM-174 in man
Assay setup: human, in vivo, intravenous; Cancer patients; median and range; read-out: Vss
Observation type: Vd
Quick note: unit goes after the number.

Challenge: Consider the molecule CCCCCCCCCCCC(=O)O[C@H](CCCCCCCCCCC)CC(=O)N[C@@H]1C(O)[C@H](OP(=O)(O)O)C(CO)O[C@H]1OCC1O[C@H](OP(=O)(O)O)C(NC(=O)C[C@H](O)CCCCCCCCCCC)C(O)[C@@H]1O (stereo partly shown) [OM-174] . State its measured Vd.
Response given: 2.9 L

====

Method summary: Pharmacokinetic data of OM-174 in man
Assay setup: human, in vivo; Healthy volunteers; median and range; read-out: Vss
Observation type: Vd (L)
# unit: L | format: bare number

Challenge: Consider the compound CCCCCCCCCCCC(=O)O[C@H](CCCCCCCCCCC)CC(=O)N[C@@H]1C(O)[C@H](OP(=O)(O)O)C(CO)O[C@H]1OCC1O[C@H](OP(=O)(O)O)C(NC(=O)C[C@H](O)CCCCCCCCCCC)C(O)[C@@H]1O (stereo partly shown) . State its measured Vd.
Response given: 5.1

====

Method summary: Pharmacokinetic data of OM-174 in man
Assay setup: human, in vivo, intravenous; Cancer patients; median and range
Observation type: half-life (h)
# unit: h | format: bare number

Challenge: Consider the compound CCCCCCCCCCCC(=O)O[C@H](CCCCCCCCCCC)CC(=O)N[C@@H]1C(O)[C@H](OP(=O)(O)O)C(CO)O[C@H]1OCC1O[C@H](OP(=O)(O)O)C(NC(=O)C[C@H](O)CCCCCCCCCCC)C(O)[C@@H]1O (stereo partly shown) . State its measured half-life.
Response given: 20

====

Method summary: Pharmacokinetic data of OM-174 in man
Assay setup: human, in vivo; Healthy volunteers; median and range
Observation type: clearance (mL/min)
# unit: mL/min | format: bare number

Challenge: Consider the molecule CCCCCCCCCCCC(=O)O[C@H](CCCCCCCCCCC)CC(=O)N[C@@H]1C(O)[C@H](OP(=O)(O)O)C(CO)O[C@H]1OCC1O[C@H](OP(=O)(O)O)C(NC(=O)C[C@H](O)CCCCCCCCCCC)C(O)[C@@H]1O (stereo partly shown) [OM-174] . State its measured clearance.
Response given: 2.82

====

Method summary: Pharmacokinetic data of OM-174 in man
Assay setup: human, in vivo, intravenous; Cancer patients; median and range
Observation type: clearance (mL/min)
# unit: mL/min | format: bare number

Challenge: Consider the compound CCCCCCCCCCCC(=O)O[C@H](CCCCCCCCCCC)CC(=O)N[C@@H]1C(O)[C@H](OP(=O)(O)O)C(CO)O[C@H]1OCC1O[C@H](OP(=O)(O)O)C(NC(=O)C[C@H](O)CCCCCCCCCCC)C(O)[C@@H]1O (stereo partly shown) . State its measured clearance.
Response given: 1.7
